In this section we review reported viability, T/C values for a set of molecules.
Test system: 292921-168-R-J2-PDC spheroids with HUVEC/MSC, viability;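 further: spheroids exposed to drugs for seven days before readout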
Method: Anticancer human tumor 292921-168-R-J2-PDC patient-derived pancreatic carcinoma cell line growth inhibition [TAK]
Test conditions: second compound 9.49 µM; first compound 0.000316 µM; active compounds read low
Write down the numeric answer in % and omit the unit.

>  <Molecule>
CC(C)CC(NC(=O)CNC(=O)c1cc(Cl)ccc1Cl)B1OC(=O)CC(CC(=O)O)(C(=O)O)O1 (centres undefined) + CC(C)NCC(C(=O)N1CCN(c2ncnc3c2C(C)CC3O)CC1)c1ccc(Cl)cc1

>  <Experimental target>
292921-168-R-J2-PDC spheroids with HUVEC/MSC, viability;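 further: spheroids exposed to drugs for seven days before readout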

>  <Unit annotation>
%

>  <viability, T/C>
62

$$$$
>  <Molecule>
CC(C)n1nc(-c2ccc3oc(N)nc3c2)c2c(N)ncnc21 + CC(C)NCC(C(=O)N1CCN(c2ncnc3c2C(C)CC3O)CC1)c1ccc(Cl)cc1

>  <Experimental target>
292921-168-R-J2-PDC spheroids with HUVEC/MSC, viability;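 further: spheroids exposed to drugs for seven days before readout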

>  <Unit annotation>
%

>  <viability, T/C>
63.7

$$$$
>  <Molecule>
COC1CC2CCC(C)C(O)(O2)C(=O)C(=O)N2CCCCC2C(=O)OC(C(C)CC2CCC(OCCO)C(OC)C2)CC(=O)C(C)C=C(C)C(O)C(OC)C(=O)C(C)CC(C)C=CC=CC=C1C (centres undefined) + CC(C)NCC(C(=O)N1CCN(c2ncnc3c2C(C)CC3O)CC1)c1ccc(Cl)cc1

>  <Experimental target>
292921-168-R-J2-PDC spheroids with HUVEC/MSC, viability;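 further: spheroids exposed to drugs for seven days before readout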

>  <Unit annotation>
%

>  <viability, T/C>
47.9

$$$$

As a next step, examine the molecule that follows.
Given the entry CC(C)CC(NC(=O)C(Cc1ccccc1)NC(=O)c1cnccn1)B(O)O (centres undefined) + CC(C)NCC(C(=O)N1CCN(c2ncnc3c2C(C)CC3O)CC1)c1ccc(Cl)cc1 , report its measured viability, T/C.
58.7
